Multi-source literature compilation: Ki on Prothrombin (Bos taurus, UniProt P00735).
Note to self: use TRUE only for Ki readings below 900 nM; a reading exactly at 900 nM still gets FALSE.

Solved entries:
N#Cc1ccc(N2C(=O)c3ccc(OC(=O)CCc4ccc(N)nc4)cc3C2=O)cc1: FALSE
CC(C)(c1ccccc1)c1cccc(S(=O)(=O)NC(CCCNC(=N)N)C(=O)N2CCCC[C@H]2CO)c1 (stereo not given in full): FALSE
CC(C)(C)NC(=O)NC1CCN(C(=O)[C@H](Cc2cccc(C(=N)N)c2)NS(=O)(=O)c2cccc(-c3ccc(CN)cc3)c2)CC1: TRUE
N=C(N)c1cccc(C[C@H](NS(=O)(=O)c2cccc(NC(=O)CCN)c2)C(=O)N2CCC(NC(N)=O)CC2)c1: FALSE
CC(C)(C)NC(=O)NC1CCN(C(=O)[C@H](Cc2cccc(C(=N)N)c2)NS(=O)(=O)c2cccc(-c3ccc(Cl)cc3Cl)c2)CC1: TRUE

Exam item: Say whether its Ki is strictly beneath 900 nM. Entry: `CC1CCN(C(=O)[C@H](Cc2cccc(C(=N)N)c2)NS(=O)(=O)c2ccc(C(C)(C)C)cc2)CC1`
Marked response: TRUE

Exam item: Given the entry `CC[C@H](C)[C@@H]1NC(=O)[C@@H]2CCCN2C(=O)[C@@H]2CCCN2C(=O)[C@H]([C@@H](C)CC)NC(=O)[C@H](CO)NC(=O)[C@H](CCCNC(=N)N)NC(=O)[C@H]([C@@H](C)O)NC(=O)[C@@H]2CSSC[C@H](NC1=O)C(=O)N[C@@H](Cc1ccccc1)C(=O)N1CCC[C@@H]1C(=O)N[C@@H](CC(=O)O)C(=O)NCC(=O)N[C@@H](CCCNC(=N)N)C(=O)N2` , would its reported Ki be below 900 nM?
Marked response: TRUE

Exam item: Say whether its Ki is strictly beneath 900 nM. Entry: CC1CNc2c(cccc2S(=O)(=O)NC(CCCN=C(N)N)C(=O)N2CCC(O)CC2)C1 (stereo not given)
Marked response: FALSE

Exam item: Strictly below 900 nM: is that where Ki of `COc1cc(C)c(S(=O)(=O)N[C@@H](Cc2cccc(C(=N)N)c2)C(=O)N2CCC(C)CC2)c(C)c1C` sits?
Marked response: TRUE

Exam item: Determine whether this molecule shows Ki lower than 900 nM (ties excluded): `N=C(N)c1cccc(C[C@H](NS(=O)(=O)c2ccc3ccccc3c2)C(=O)N2CCNCC2)c1`
Marked response: TRUE

Exam item: Check if Ki falls below 900 nM for `CC(C)OC(=O)[C@H](Cc1cccc(C(=N)N)c1)NS(=O)(=O)c1ccc2ccccc2c1` .
Marked response: TRUE

Exam item: Determine whether this molecule shows Ki lower than 900 nM (ties excluded): `CN=C(N)c1ccc(C[C@H](NS(=O)(=O)c2ccc3ccccc3c2)C(=O)N2CCCCCC2)cc1`
Marked response: TRUE

Exam item: Dear reviewer, please state whether CC1CNc2c(cccc2S(=O)(=O)NC(CCCN=C(N)N)C(=O)N2CCC(CCCl)CC2)C1 (stereo not given) has Ki strictly beneath 900 nM.
Marked response: TRUE

Exam item: Quick check: does `N=C(N)c1cccc(C[C@H](NS(=O)(=O)c2cccc(NC(=O)CCN)c2)C(=O)N2CCC(NC(=O)Nc3ccccc3)CC2)c1` have Ki under 900 nM?
Marked response: FALSE

Exam item: Please indicate whether the reported Ki of `CC[C@H](C)[C@@H]1NC(=O)[C@@H]2CCCN2C(=O)[C@@H]2CCCN2C(=O)[C@H]([C@@H](C)CC)NC(=O)[C@H](CO)NC(=O)[C@H](CCCCN)NC(=O)[C@H]([C@@H](C)O)NC(=O)[C@@H]2CSCSC[C@H](NC1=O)C(=O)N[C@@H](Cc1ccccc1)C(=O)N1CCC[C@@H]1C(=O)N[C@@H](CC(=O)O)C(=O)NCC(=O)N[C@@H](CCCNC(=N)N)C(=O)N2` is strictly below 900 nM.
Marked response: FALSE

Exam item: Given `CN1C(=O)c2ccc(OC(=O)CCc3ccc(N)nc3)cc2C1=O` , is recorded Ki strictly lower than 900 nM?
Marked response: FALSE

---

The compounds below each have a reported Ki tested on Prothrombin (Bos taurus); the values come from various publications.
Decision: Ki beneath 0.5 µM gives rule met; Ki meeting or exceeding 0.5 µM gives rule not met.

N=C(N)c1cccc(C[C@H](NS(=O)(=O)c2cccc3ccccc23)C(=O)N2CCCCC2)c1: rule met

Exam item: # check: Ki < 0.5 µM for CC1CNc2c(cccc2S(=O)(=O)NC(CCCN=C(N)N)C(=O)N2CCC(CCOC(=O)CC(=O)O)CC2)C1 (centres undefined)
Marked response: rule met

Exam item: A record lists `NC(N)c1ccc(C[C@H](NS(=O)(=O)c2ccc3ccccc3c2)C(=O)N2CCCCCC2)cc1` . Is its Ki below 0.5 µM?
Marked response: rule met

Exam item: Hi there! Is Ki for `N=C(N)c1ccc(CNC(=O)[C@@H]2Cc3ccc(cc3)NC(=O)CN3CCN(CC3)CC(=O)Nc3ccc(cc3)C[C@@H](NS(=O)(=O)c3ccccc3)C(=O)N2)cc1` below 0.5 µM, do you know?
Marked response: rule not met

Exam item: Regarding `N=C(N)c1ccc2c(C(=O)C(F)(F)F)c[nH]c2c1` , kindly confirm whether its Ki is beneath 0.5 µM.
Marked response: rule not met

Exam item: # check: Ki < 0.5 µM for `N=C(N)c1cccc(C[C@H](NS(=O)(=O)c2ccc3ccccc3c2)C(=O)N2CCC(C(=O)OC3CCCCC3)CC2)c1`
Marked response: rule not met

Exam item: Is it true that Ki reported for `NCc1ccc(CNC(=O)[C@@H]2Cc3ccc(cc3)NC(=O)CCN3CCN(CCC(=O)Nc4ccc(cc4)C[C@@H](NS(=O)(=O)NC4CCCCC4)C(=O)N2)CC3)cc1` is less than 0.5 µM?
Marked response: rule not met

Exam item: Bench note: check whether CC1CNc2c(cccc2S(=O)(=O)NC(CCCN=C(N)N)C(=O)N2CCC(CCNC(=O)CCP(=O)(O)O)CC2)C1 (centres undefined) shows Ki below 0.5 µM
Marked response: rule not met

---

Literature compilation of log10(Ki) measurements on UniProt:P00735.
Units before log transform: nM; reported quantity: Ki; transform: log10.

N#Cc1ccc(N2C(=O)c3ccc(OC(=O)CCc4ccc(N)cc4)cc3C2=O)cc1: 3.93
CC1CNc2c(cccc2S(=O)(=O)NC(CCCN=C(N)N)C(=O)N2CCC(CCOC(=O)CCC(=O)O)CC2)C1 (stereo unspecified): 1.53
CC(C)(C)NC(=O)NC1CCN(C(=O)[C@H](Cc2cccc(C(=N)N)c2)NS(=O)(=O)c2cccc(-c3ccc(F)c(CO)c3)c2)CC1: 3.03
CCNC(=N)c1ccc(C[C@H](NS(=O)(=O)c2ccc3ccccc3c2)C(=O)N2CCCCCC2)cc1: 4.13
COC(=O)N1CCN(C(=O)[C@H](Cc2cccc(C(=N)N)c2)NS(=O)(=O)c2ccc3ccccc3c2)CC1: 1.28

Now look at this one.
compound CC(=O)NCCC1CCN(C(=O)C(CCCN=C(N)N)NS(=O)(=O)c2cccc3c2NCC(C)C3)CC1 (stereo unspecified) , log10(Ki) observed: 1.65

---

Literature compilation of pKi measurements on Prothrombin (Bos taurus).
Reminder that pKi means the negative base-10 logarithm of the concentration expressed in mol/L.

COc1ccc(-c2cccc(S(=O)(=O)N[C@@H](Cc3cccc(C(=N)N)c3)C(=O)N3CCN(C(=O)NC(C)(C)C)CC3)c2)c(OC)c1: 7.14
CCCCOC(=O)[C@H](Cc1cccc(C(=N)N)c1)NS(=O)(=O)c1ccc2ccccc2c1: 7.89
CCC(=O)c1cc2ccc(C(=N)N)cc2[nH]1: 4.26

# evaluate next
# pKi measured on Prothrombin (Bos taurus) for item `CC1CCN(C(=O)[C@H](Cc2cccc(C(=N)N)c2)NS(=O)(=O)c2c(C(C)C)cc(C(C)C)cc2C(C)C)CC1` = 7.13

---

Assay read-out pKi on UniProt:P00735; records merged from the literature.
pKi: −log10 of the molar value.
Respond with y for pKi values of 6 and above, n for values below.

CCOC(=O)N1CCN(C(=O)C(Cc2cccc(C(N)N)c2)NS(=O)(=O)c2c(C(C)C)cc(C(C)C)cc2C(C)C)CC1 (stereo unspecified): y
CC1CNc2c(cccc2S(=O)(=O)NC(CCCN=C(N)N)C(=O)N2CCCC[C@H]2CO)C1 (stereo partly specified): y
CNC(N)c1ccc(C[C@H](NS(=O)(=O)c2ccc3ccccc3c2)C(=O)N2CCCCCC2)cc1 (stereo partly specified): y
NN=C(N)c1ccc(C[C@H](NS(=O)(=O)c2ccc3ccccc3c2)C(=O)N(CCO)C2CCCC2)cc1: n
CC1CNc2c(cccc2S(=O)(=O)NC(CCCNC(=N)N)C(=O)N2CCC(CO)CC2)C1 (stereo unspecified): y

Exam item: Does pKi meet or surpass 6 for N=C(N)N1CCCC(C(=O)Nc2cccc(OCc3ccc(-c4ccccc4)cc3)c2)C1 (stereo unspecified) ?
Marked response: n

Exam item: Check if pKi >= 6 (inclusive). Item: `N=C(N)c1cccc(C[C@H](NS(=O)(=O)c2ccc3ccccc3c2)C(=O)N2CCN(c3ccccc3)CC2)c1`
Marked response: y

Exam item: Hi team, for O=C(OC1O[C@@H]2COC(=O)c3cc(O)c(O)c(O)c3-c3c(cc(O)c(O)c3O)C(=O)O[C@H]2[C@H](OC(=O)c2cc(O)c(O)c(O)c2)[C@H]1OC(=O)c1cc(O)c(O)c(O)c1)c1cc(O)c(O)c(O)c1 (stereo partly specified) , is the recorded pKi at or above 6?
Marked response: y
